Kindly supply the reported pIC50 (+/−SEM) mGAT4 values for the records listed here.
Molecular target: mGAT4 (Mus musculus (Mouse))
Sequence (P31650 whole entry): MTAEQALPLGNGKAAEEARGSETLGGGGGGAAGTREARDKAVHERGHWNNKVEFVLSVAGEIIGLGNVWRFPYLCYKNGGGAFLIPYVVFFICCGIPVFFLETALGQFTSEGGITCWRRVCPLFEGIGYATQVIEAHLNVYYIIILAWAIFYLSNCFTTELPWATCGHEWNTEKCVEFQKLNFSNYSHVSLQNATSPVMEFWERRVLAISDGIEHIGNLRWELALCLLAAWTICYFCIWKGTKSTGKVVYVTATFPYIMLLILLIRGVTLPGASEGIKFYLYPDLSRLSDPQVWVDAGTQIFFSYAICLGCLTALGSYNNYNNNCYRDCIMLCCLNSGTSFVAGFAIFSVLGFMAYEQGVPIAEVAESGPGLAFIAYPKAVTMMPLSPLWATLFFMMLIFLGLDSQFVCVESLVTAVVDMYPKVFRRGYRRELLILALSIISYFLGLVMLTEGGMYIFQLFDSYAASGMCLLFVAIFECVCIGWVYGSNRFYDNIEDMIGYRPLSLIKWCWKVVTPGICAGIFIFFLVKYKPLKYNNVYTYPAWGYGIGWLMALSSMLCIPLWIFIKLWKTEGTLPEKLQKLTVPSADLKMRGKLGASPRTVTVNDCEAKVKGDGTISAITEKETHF
Assay: [3H]GABA uptake inhibition, mGAT4 in HEK293 cells
Format: cell-based
Conditions: GABA reuptake
Description: Exemplary compounds according to the invention were screened at the Ludwig-Maximilian University of Munich to determine the inhibitory ability towards four mouse GAT transporters (mGAT1-mGAT4). […] The biological material was stably transfected human embryonic kidney HEK293 cells, expressing genes to the appropriate transporters. The generated radioactivity was measured with a liquid scintillation counter. […]

Qu. Record request: pIC50 (+/−SEM) mGAT4 value, item O[C@H](CNCC1CC1)[C@H](Cc1ccccc1)NC1c2ccccc2-c2ccccc21 [JT-3]
Ans. 5.11 +/− 0.02

Qu. Follow-up entry: O[C@H](CNCc1ccccc1)[C@H](Cc1ccccc1)NC1c2ccccc2-c2ccccc21 [Compound 1]
Ans. 5.11 +/− 0.01

Qu. Follow-up entry: COc1cccc(CNC[C@H](O)[C@H](Cc2ccccc2)NC2c3ccccc3-c3ccccc32)c1 [Compound 6]
Ans. 5.15 +/− 0.034

Qu. Follow-up entry: COc1ccccc1CNC[C@H](O)[C@H](Cc1ccccc1)NC1c2ccccc2-c2ccccc21 [Compound 7]
Ans. 5.21 +/− 0.04

* * *

Biological target: horse plasma butyrylcholinesterase (eqBuChE) (Equus caballus (Horse), UniProt P81908)
Sequence (P81908 whole entry): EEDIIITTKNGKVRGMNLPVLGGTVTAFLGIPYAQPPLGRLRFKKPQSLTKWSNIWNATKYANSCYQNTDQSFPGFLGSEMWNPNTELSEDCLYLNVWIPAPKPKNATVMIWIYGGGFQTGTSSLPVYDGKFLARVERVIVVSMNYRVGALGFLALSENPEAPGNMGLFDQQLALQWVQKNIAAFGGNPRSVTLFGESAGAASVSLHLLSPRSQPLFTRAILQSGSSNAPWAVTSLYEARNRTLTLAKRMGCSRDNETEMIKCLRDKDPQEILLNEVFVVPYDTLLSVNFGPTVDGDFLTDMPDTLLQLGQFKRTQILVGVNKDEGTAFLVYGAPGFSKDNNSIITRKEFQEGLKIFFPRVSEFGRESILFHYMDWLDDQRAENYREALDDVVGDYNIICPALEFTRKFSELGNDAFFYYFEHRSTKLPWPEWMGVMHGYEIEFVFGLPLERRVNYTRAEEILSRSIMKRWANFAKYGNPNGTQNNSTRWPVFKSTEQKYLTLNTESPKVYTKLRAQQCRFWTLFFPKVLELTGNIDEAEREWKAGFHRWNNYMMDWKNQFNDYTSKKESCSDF
Experiment: Ellman's test, inhibition of horse plasma butyrylcholinesterase
# note: exactly 1 µM is not below, so it is False; use True for IC50 strictly under it

Qu. Does O=C(CC1c2ccccc2-c2ccccc21)N[C@@H](Cc1ccccc1)[C@@H](O)CNCc1ccccc1 have IC50 strictly under 1 µM?
Ans. False

Qu. Follow-up entry: CC(C)(NC[C@@H](O)[C@H](Cc1ccccc1)NC(=O)CC1c2ccccc2-c2ccccc21)c1ccccc1
Ans. False

Qu. Follow-up entry: O[C@H](CNCC(F)(F)F)[C@H](Cc1ccccc1)NC1c2ccccc2-c2ccccc21
Ans. False

Qu. Follow-up entry: COc1cccc(CNC[C@H](O)[C@H](Cc2ccccc2)NC2c3ccccc3-c3ccccc32)c1
Ans. False

Qu. Follow-up entry: CC(C)(C)CNC[C@@H](O)[C@H](Cc1ccccc1)NC(=O)C1c2ccccc2-c2ccccc21
Ans. False

Qu. Follow-up entry: O[C@@H](CNCc1ccccc1)[C@H](Cc1ccccc1)NC1c2ccccc2-c2ccccc21
Ans. True

Qu. Follow-up entry: O=C(CC1c2ccccc2-c2ccccc21)N[C@@H](Cc1ccccc1)[C@H](O)CNCC1CC1
Ans. False

Qu. Follow-up entry: CC(C)(C)c1ccc(CNC[C@H](O)[C@H](Cc2ccccc2)NC(=O)C2c3ccccc3-c3ccccc32)cc1
Ans. False

Qu. Follow-up entry: CC(C)c1cccc(CNC[C@@H](O)[C@H](Cc2ccccc2)NC2c3ccccc3-c3ccccc32)c1
Ans. True

Qu. Follow-up entry: CC(C)(C)NC[C@H](O)[C@H](Cc1ccccc1)NC1c2ccccc2-c2ccccc21
Ans. False

Qu. Follow-up entry: C[C@H](NC[C@@H](O)[C@H](Cc1ccccc1)NC(=O)CC1c2ccccc2-c2ccccc21)c1ccccc1
Ans. False

Qu. Follow-up entry: O[C@H](CNCc1cccc(C(F)(F)F)c1)[C@H](Cc1ccccc1)NC1c2ccccc2-c2ccccc21
Ans. True

Qu. Follow-up entry: CC(C)(C)CNC[C@@H](O)[C@H](Cc1ccccc1)NC(=O)CC1c2ccccc2-c2ccccc21
Ans. True

Qu. Follow-up entry: O[C@@H](CNCC1CCCCC1)[C@H](Cc1ccccc1)NC1c2ccccc2-c2ccccc21
Ans. True

Qu. Follow-up entry: CC(C)(NC[C@@H](O)[C@H](Cc1ccccc1)NC(=O)C1c2ccccc2-c2ccccc21)c1ccccc1
Ans. False

Qu. Follow-up entry: O[C@H](CNCc1ccccc1)[C@H](Cc1ccccc1)NC1c2ccccc2-c2ccccc21
Ans. True

Qu. Follow-up entry: O=C(CC1c2ccccc2-c2ccccc21)N[C@@H](Cc1ccccc1)[C@H](O)CNCc1cccc(C(F)(F)F)c1
Ans. False

Qu. Follow-up entry: COc1ccccc1CNC[C@H](O)[C@H](Cc1ccccc1)NC(=O)CC1c2ccccc2-c2ccccc21
Ans. False

Qu. Follow-up entry: CC(C)(NC[C@@H](O)[C@H](Cc1ccccc1)NC1c2ccccc2-c2ccccc21)c1ccccc1
Ans. True

Qu. Follow-up entry: CC(C)(C)CNC[C@@H](O)[C@H](Cc1ccccc1)NC1c2ccccc2-c2ccccc21
Ans. False

Qu. Follow-up entry: CC(C)(C)c1ccc(CNC[C@H](O)[C@H](Cc2ccccc2)NC(=O)CC2c3ccccc3-c3ccccc32)cc1
Ans. False

Qu. Follow-up entry: CC(C)(C)c1ccc(CNC[C@H](O)[C@H](Cc2ccccc2)NC2c3ccccc3-c3ccccc32)cc1
Ans. True

Qu. Follow-up entry: C[C@H](NC[C@@H](O)[C@H](Cc1ccccc1)NC1c2ccccc2-c2ccccc21)c1ccccc1
Ans. True

Qu. Follow-up entry: COc1ccccc1CNC[C@H](O)[C@H](Cc1ccccc1)NC1c2ccccc2-c2ccccc21
Ans. True

Qu. Follow-up entry: O[C@H](CNCC1CC1)[C@H](Cc1ccccc1)NC1c2ccccc2-c2ccccc21
Ans. True

* * *

Target: human plasma butyrylcholinesterase (hBuChE) (Homo sapiens (Human))
Sequence (P06276 29-602): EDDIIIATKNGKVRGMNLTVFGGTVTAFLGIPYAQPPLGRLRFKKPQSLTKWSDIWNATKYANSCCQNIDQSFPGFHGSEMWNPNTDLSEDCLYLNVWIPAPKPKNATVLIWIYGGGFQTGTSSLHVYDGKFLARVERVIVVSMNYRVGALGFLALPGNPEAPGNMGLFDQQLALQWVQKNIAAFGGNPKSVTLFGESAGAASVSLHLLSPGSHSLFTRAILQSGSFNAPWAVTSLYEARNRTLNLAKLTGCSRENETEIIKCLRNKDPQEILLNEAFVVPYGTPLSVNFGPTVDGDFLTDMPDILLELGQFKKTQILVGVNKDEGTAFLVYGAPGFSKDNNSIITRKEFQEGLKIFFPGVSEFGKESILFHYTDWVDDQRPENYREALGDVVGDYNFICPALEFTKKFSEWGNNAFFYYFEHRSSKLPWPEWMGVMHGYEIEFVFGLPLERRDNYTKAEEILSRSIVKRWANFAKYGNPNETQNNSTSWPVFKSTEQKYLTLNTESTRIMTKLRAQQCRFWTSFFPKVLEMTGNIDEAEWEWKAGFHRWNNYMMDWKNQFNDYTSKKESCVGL
Test: Ellman's test, inhibition of human plasma butyrylcholinesterase
Format: biochemical
Conditions: 1 μM inhibitor concentration; read-out: hBuChE % inh
measurement_name: inhibition at 1 µM (%)
Give the number; % is assumed, so skip it.

Qu. Record request: inhibition at 1 µM value, item O=C(CC1c2ccccc2-c2ccccc21)N[C@@H](Cc1ccccc1)[C@@H](O)CNCc1ccccc1 [Compound 17]
Ans. 66.4

Qu. Follow-up entry: CC(C)(C)c1ccc(CNC[C@H](O)[C@H](Cc2ccccc2)NC(=O)C2c3ccccc3-c3ccccc32)cc1 [Compound 18]
Ans. 55.6

Qu. Follow-up entry: CC(C)(C)CNC[C@@H](O)[C@H](Cc1ccccc1)NC(=O)C1c2ccccc2-c2ccccc21 [Compound 26]
Ans. 61.1

Qu. Follow-up entry: O[C@H](CNCC(F)(F)F)[C@H](Cc1ccccc1)NC1c2ccccc2-c2ccccc21 [Compound 14]
Ans. 67.9

Qu. Follow-up entry: CC(C)(C)NC[C@H](O)[C@H](Cc1ccccc1)NC1c2ccccc2-c2ccccc21 [Compound 12]
Ans. 58.8

Qu. Follow-up entry: COc1cccc(CNC[C@H](O)[C@H](Cc2ccccc2)NC2c3ccccc3-c3ccccc32)c1 [Compound 6]
Ans. 67.7

Qu. Follow-up entry: CC(C)(NC[C@@H](O)[C@H](Cc1ccccc1)NC(=O)C1c2ccccc2-c2ccccc21)c1ccccc1 [Compound 24]
Ans. 21.4

Qu. Follow-up entry: CC(C)(NC[C@@H](O)[C@H](Cc1ccccc1)NC(=O)CC1c2ccccc2-c2ccccc21)c1ccccc1 [Compound 25]
Ans. 71.7

Qu. Follow-up entry: CC(C)(C)c1ccc(CNC[C@H](O)[C@H](Cc2ccccc2)NC(=O)CC2c3ccccc3-c3ccccc32)cc1 [Compound 19]
Ans. 77.1

Qu. Follow-up entry: CC(C)(C)c1ccc(CNC[C@H](O)[C@H](Cc2ccccc2)NC2c3ccccc3-c3ccccc32)cc1 [Compound 5]
Ans. 62

Qu. Follow-up entry: CC(C)(C)CNC[C@@H](O)[C@H](Cc1ccccc1)NC1c2ccccc2-c2ccccc21 [Compound 13]
Ans. 61.3

Qu. Follow-up entry: O=C(CC1c2ccccc2-c2ccccc21)N[C@@H](Cc1ccccc1)[C@H](O)CNCc1cccc(C(F)(F)F)c1 [Compound 21]
Ans. 54.3

Qu. Follow-up entry: O[C@@H](CNCC1CCCCC1)[C@H](Cc1ccccc1)NC1c2ccccc2-c2ccccc21 [Compound 11]
Ans. 76.5

Qu. Follow-up entry: CC(C)(C)c1cccc(CNC[C@@H](O)[C@H](Cc2ccccc2)NC2c3ccccc3-c3ccccc32)c1 [Compound 3]
Ans. 68

Qu. Follow-up entry: COc1ccccc1CNC[C@H](O)[C@H](Cc1ccccc1)NC(=O)CC1c2ccccc2-c2ccccc21 [Compound 20]
Ans. 74.5

* * *

Molecular target: human recombinant beta-secretase (hBACE1) (Homo sapiens (Human))
Sequence (P56817 46-501): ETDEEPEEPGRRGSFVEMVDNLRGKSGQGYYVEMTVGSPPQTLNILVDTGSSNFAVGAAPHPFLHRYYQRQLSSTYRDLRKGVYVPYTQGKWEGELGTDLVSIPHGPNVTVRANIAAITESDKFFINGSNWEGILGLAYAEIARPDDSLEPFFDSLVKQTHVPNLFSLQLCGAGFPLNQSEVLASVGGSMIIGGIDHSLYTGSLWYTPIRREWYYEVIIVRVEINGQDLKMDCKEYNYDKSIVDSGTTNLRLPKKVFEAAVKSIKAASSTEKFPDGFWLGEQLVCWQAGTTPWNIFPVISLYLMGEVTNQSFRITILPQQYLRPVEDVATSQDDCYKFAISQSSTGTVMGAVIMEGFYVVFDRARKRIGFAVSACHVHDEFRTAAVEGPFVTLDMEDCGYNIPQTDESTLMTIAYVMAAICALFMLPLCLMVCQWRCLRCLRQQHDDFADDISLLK
Experiment: FRET assay, inhibition of human recombinant beta-secretase
Assay type: biochemical
Conditions: 50 μM inhibitor concentration; read-out: hBACE-1 % inh
measurement_name: inhibition at 50 µM (%)
Give the number; % is assumed, so skip it.

Qu. Record request: inhibition at 50 µM value, item CC(C)(C)NC[C@H](O)[C@H](Cc1ccccc1)NC1c2ccccc2-c2ccccc21
Ans. 48.7

Qu. Follow-up entry: CC(C)(C)c1ccc(CNC[C@H](O)[C@H](Cc2ccccc2)NC(=O)CC2c3ccccc3-c3ccccc32)cc1
Ans. 78.3

Qu. Follow-up entry: CC(C)(C)CNC[C@@H](O)[C@H](Cc1ccccc1)NC(=O)C1c2ccccc2-c2ccccc21
Ans. 54.5

Qu. Follow-up entry: O[C@H](CNCC(F)(F)F)[C@H](Cc1ccccc1)NC1c2ccccc2-c2ccccc21
Ans. 36.8

Qu. Follow-up entry: O[C@H](CNCC1CC1)[C@H](Cc1ccccc1)NC1c2ccccc2-c2ccccc21
Ans. 61.3

Qu. Follow-up entry: COc1ccccc1CNC[C@H](O)[C@H](Cc1ccccc1)NC(=O)CC1c2ccccc2-c2ccccc21
Ans. 71.1

Qu. Follow-up entry: C[C@H](NC[C@@H](O)[C@H](Cc1ccccc1)NC(=O)C1c2ccccc2-c2ccccc21)c1ccccc1
Ans. 72.6

Qu. Follow-up entry: CC(C)(C)CNC[C@@H](O)[C@H](Cc1ccccc1)NC(=O)CC1c2ccccc2-c2ccccc21
Ans. 52.4
